Form field: IC50 (one value per entry).
tested.target: UniProtKB O08914
procedure.details: biochemical
settings: in vitro competitive ABPP
experimental.endpoint: IC50

[[record]]
compound = "O=C(OC(C(F)(F)F)C(F)(F)F)N1CC2CN(Cc3ccc(C(=O)N4CCCC4)c(OC(F)(F)F)c3)CC2C1 (stereo not shown)"
endpoint_value = "> 10000 nM"

[[record]]
compound = "CC(=O)N1CCC(c2nn(C(C)C)cc2CN2CC3CN(C(=O)OC(C(F)(F)F)C(F)(F)F)CC3C2)CC1 (stereo not shown)"
endpoint_value = "> 10000 nM"

[[record]]
compound = "O=C(OC(C(F)(F)F)C(F)(F)F)N1CC2CN(Cc3cc(CN4CCOCC4)ccc3OC(F)(F)F)CC2C1 (stereo not shown)"
endpoint_value = "1000 to 10000 nM"

[[record]]
compound = "CS(=O)(=O)N1CCN(c2cc(Cl)ccc2CN2CC3CN(C(=O)OC(C(F)(F)F)C(F)(F)F)CC3C2)CC1 (stereo not shown)"
endpoint_value = "1000 to 10000 nM"

[[record]]
compound = "O=C(OC(C(F)(F)F)C(F)(F)F)N1CC2CN(Cc3ccc(Cl)cc3N3CCC(C(=O)N4CCCC4)CC3)CC2C1 (stereo not shown)"
endpoint_value = "1000 to 10000 nM"

[[record]]
compound = "O=C(OC(C(F)(F)F)C(F)(F)F)N1CC2CN(Cc3c(N4CC5COCC5C4)cccc3C(F)(F)F)CC2C1 (stereo not shown)"
endpoint_value = "> 10000 nM"

[[record]]
compound = "Cc1cc(CN2CC3CN(C(=O)OC(C(F)(F)F)C(F)(F)F)CC3C2)n(C2CCCCC2)n1 (stereo not shown)"
endpoint_value = "> 10000 nM"


###

Form field: inhibition at 1 µM (one value per entry).
tested.target: UniProtKB O08914
Sequence (O08914 1-579): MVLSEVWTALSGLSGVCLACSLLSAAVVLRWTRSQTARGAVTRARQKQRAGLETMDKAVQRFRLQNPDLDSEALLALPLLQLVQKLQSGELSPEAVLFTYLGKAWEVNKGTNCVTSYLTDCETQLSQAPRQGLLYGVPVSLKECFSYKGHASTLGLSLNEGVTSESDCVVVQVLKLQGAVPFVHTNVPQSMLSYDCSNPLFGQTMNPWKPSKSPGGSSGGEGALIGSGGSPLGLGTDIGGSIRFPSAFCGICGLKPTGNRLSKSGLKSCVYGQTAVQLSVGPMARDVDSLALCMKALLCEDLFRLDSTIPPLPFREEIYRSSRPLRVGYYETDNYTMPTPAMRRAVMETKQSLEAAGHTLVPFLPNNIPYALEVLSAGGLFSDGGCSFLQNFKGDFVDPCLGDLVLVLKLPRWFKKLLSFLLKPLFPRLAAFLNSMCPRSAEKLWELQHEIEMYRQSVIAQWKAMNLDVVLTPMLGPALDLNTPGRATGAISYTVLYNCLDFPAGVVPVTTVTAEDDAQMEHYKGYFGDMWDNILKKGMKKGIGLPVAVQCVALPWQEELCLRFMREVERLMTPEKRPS
procedure.details: In vitro competitive activity-based protein profiling (Table 2, % inhibition at 1 μM)
Assay type: biochemical
settings: read-out: % Inhibition at 1 μM FAAH
experimental.endpoint: inhibition at 1 µM

[[record]]
compound = "CNC(=O)C(OC(=O)N1CC2CN(Cc3ccc(-c4ccccc4)cc3)CC2C1)C(F)(F)F (centres unmarked) [Example 126]"
endpoint_value = "25 to 75%"

[[record]]
compound = "CCn1cc(CN2CC3CN(C(=O)OC(C(F)(F)F)C(F)(F)F)CC3C2)c(C(=O)NCc2ccccc2)n1 (centres unmarked) [Example 78]"
endpoint_value = "< 25%"

[[record]]
compound = "O=C(ON1C(=O)CCC1=O)N1CC2CN(Cc3ccccc3-c3ccccc3)CC2C1 (centres unmarked) [Example 87]"
endpoint_value = "25 to 75%"

[[record]]
compound = "CC1COCCN1c1cc(Cl)ccc1CN1CC2CN(C(=O)ON3C(=O)CCC3=O)CC2C1 (centres unmarked) [Example 95]"
endpoint_value = "< 25%"

[[record]]
compound = "Cc1c(CN2CC3CN(C(=O)ON4C(=O)CCC4=O)CC3C2)cccc1N1CCN(C)CC1 (centres unmarked) [Example 145]"
endpoint_value = "< 25%"

[[record]]
compound = "O=C(ON1C(=O)CCC1=O)N1CC2CN(Cc3ccc(Cl)cc3N3CCC4(CCNC4=O)CC3)CC2C1 (centres unmarked) [Example 112]"
endpoint_value = "< 25%"

[[record]]
compound = "O=C(OC(C(F)(F)F)C(F)(F)F)N1CC2CN(Cc3ccc(Cl)cc3N3CCn4ccnc4C3)CC2C1 (centres unmarked) [Example 33]"
endpoint_value = "25 to 75%"

[[record]]
compound = "CC(=O)N1CCC(c2nn(C)cc2CN2CC3CN(C(=O)OC(C(F)(F)F)C(F)(F)F)CC3C2)CC1 (centres unmarked) [Example 52]"
endpoint_value = "< 25%"

